Measured IC50, listed per entry for reference.
- Test system: blood cancer cell lines (e.g. HL-60, Jurkat, Raji, Ramos, Daudi, MOLT-4)
- Experiment: Cell based assay, cell viability (CellTiter-Glo), blood cancer cell lines
- Condition Notes: Homo sapiens, blood cancer cell line Ramos (RA 1), 72 hours, read-out: IC50, Ramos (RA 1)
Measurement Name: IC50

In [3]: df
Out[3]:
                                   molecule                         target_under_test   result
0  Cc1cc(C[S+]([O-])c2[nH]c3c(Br)ccc(Cl)c3c(=O)c2C(=O)C(C)C)no1 (stereo not drawn) [Compound 95]  blood cancer cell lines (e.g. HL-60, Jurkat, Raji, Ramos, Daudi, MOLT-4)  0.52 µM
1  CC(=O)c1c([S+]([O-])Cc2cccc(I)c2)[nH]c2c(Br)ccc(Cl)c2c1=O (stereo not drawn) [Compound 48]  blood cancer cell lines (e.g. HL-60, Jurkat, Raji, Ramos, Daudi, MOLT-4)   > 2 µM
2  CC(=O)c1c([S+]([O-])Cc2cccc(S(F)(F)(F)(F)F)c2)[nH]c2c(Br)ccc(Cl)c2c1=O (stereo not drawn) [Compound 77]  blood cancer cell lines (e.g. HL-60, Jurkat, Raji, Ramos, Daudi, MOLT-4)   > 2 µM

* * *

- Tested on: lung cancer cell lines (e.g. NCI-H23, NCI-H1229)
- Experiment: Cell based assay, cell viability (CellTiter-Glo), lung cancer cell lines
- Condition Notes: Homo sapiens; NCI-H23 cells; 72 hours treatment; CellTiter-Glo; read-out: IC50, lung cancer cell line NCI-H23
- From the text: Commercially available bladder cancer, prostate cancer, lung cancer, breast cancer, blood cancer, pancreatic cancer, colorectal cancer, brain cancer, neuroblastoma, melanoma, liver cancer, cervical carcinoma, ovarian cancer, renal cancer, and papilloma cell lines were each treated with trypsin-EDTA and cultured, followed by being seeded in each well of a 96 well plate. […]
Measurement Name: IC50

>>> print(df.to_string())
                                   compound     result
0  CC(=O)c1c(SCc2ccc([N+](=O)[O-])cc2)[nH]c2c(Br)ccc(Cl)c2c1=O [Compound 32]  > 2000 nM
1  CC(=O)c1c(SCc2ccc(F)c(Cl)c2)[nH]c2c(Br)ccc(Cl)c2c1=O [Compound 30]  > 2000 nM
2  CSc1[nH]c2c(Br)ccc(Cl)c2c(=O)c1C(C)=O [Compound 2]  > 2000 nM

* * *

- System: breast cancer cell lines (e.g. MDA-MB-231, SK-BR-3, MDA-MB-468, HCC1954)
- Experiment: Cell based assay, cell viability (CellTiter-Glo), breast cancer cell lines
- Condition Notes: Homo sapiens; MDA-MB-231 cells; 72 hours treatment; CellTiter-Glo cell viability; read-out: IC50, Breast cancer cell line MDA-MB-231
pIC50: −log10 of the molar value.
Measured pIC50, listed per entry for reference.
Measurement Name: pIC50

>>> df
                                   compound  result
0  CC(=O)c1c([S+]([O-])Cc2nonc2C)[nH]c2c(Br)ccc(Cl)c2c1=O (centres unmarked) [Compound 106]  < 5.70
1  CC(=O)c1c([S+]([O-])Cc2cc(C)on2)[nH]c2c(F)ccc(F)c2c1=O (centres unmarked) [Compound 82]  < 5.70
2  CC(=O)c1c([S+]([O-])Cc2cccnc2)[nH]c2c(Br)ccc(Cl)c2c1=O (centres unmarked) [Compound 84]    5.80
3  COCCNc1ccc(C[S+]([O-])c2[nH]c3c(Br)ccc(Cl)c3c(=O)c2C(C)=O)cn1 (centres unmarked) [Compound 105]  < 5.70
4  CC(=O)c1c([S+]([O-])Cc2ccc(C#N)s2)[nH]c2c(Br)ccc(Cl)c2c1=O (centres unmarked) [Compound 98]    5.73
5  Cc1cc(C[S+]([O-])c2[nH]c3c(Br)ccc(Cl)c3c(=O)c2C(=O)C(C)C)no1 (centres unmarked) [Compound 95]    5.85
6  CC(C)C(=O)c1c([S+]([O-])Cc2ccc(SC(F)(F)F)cc2)[nH]c2c(F)ccc(F)c2c1=O (centres unmarked) [Compound 85]  < 5.70
7  Cc1cc(C[S+]([O-])c2[nH]c3c(Cl)ccc(Cl)c3c(=O)c2C(=O)c2ccccc2)no1 (centres unmarked) [Compound 88]  < 5.70
